# Tested on: NCI-H23 complex spheroids with HUVEC/MSC, viability
# METHOD_NOTES: Anticancer human tumor NCI-H23 cell line growth inhibition [RAS];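 further: spheroids exposed to compound for 7 days; 100% = DMSO vehicle control viability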
# CONDITION_LABEL: second compound 0.1 µM; first compound 1 µM; stronger effect = lower value
# Excerpt: RAS pathway inhibitors in Combinations in Complex Spheroids A high-throughput screen of multi-cell type tumor spheroids was designed to identify active combinations of RAS pathway inhibitors and targeted small molecules. Complex spheroids include a stromal component modeled by human endothelial cells (HUVEC) and fibroblasts modeled by human mesenchymal stem cells (MSCs). […] Compounds. […] If the clinical Cmax for an agent had not been determined, the highest concentration tested was 10 microM. […]
OUTCOME_MEASURE: viability, T/C (%)
Kindly provide the numeric value in % only, without the unit symbol.

Previously resolved entries follow.
CC(Nc1ccc2c(c1)OCCn1cc(N3C(=O)OCC3C(F)F)nc1-2)C(N)=O (stereo not drawn) + C#Cc1c(F)ccc2cc(O)cc(-c3ncc4c(N5CC6CCC(C5)N6)nc(OCC56CCCN5CC(F)C6)nc4c3F)c12 = 69.3
C=CC(=O)Nc1cc(Nc2nccc(-c3cn(C)c4ccccc34)n2)c(OC)cc1N(C)CCN(C)C + C=CC(=O)N1CCN(c2nc(OCC3CCCN3C)nc3c(F)c(-c4nc(N)cc(C)c4C(F)(F)F)c(Cl)cc23)C(C)C1 = 27.3

# ---- query molecule ----
Record request: viability, T/C value, item Nc1ccn(C2OC(CO)C(O)C2(F)F)c(=O)n1 (stereo not drawn) + C#Cc1c(F)ccc2cc(O)cc(-c3ncc4c(N5CC6CCC(C5)N6)nc(OCC56CCCN5CC(F)C6)nc4c3F)c12
8.63
